Values compiled from patent US20040024024A1.

# Subject of test: Human recombinant MMP-14 (Homo sapiens, UniProt P50281)
# Construct: The catalytic domain enzyme was expressed in E. coli inclusion bodies, solubilized in urea; made in house
# Protocol details: In vitro MMP inhibition, IC50 determination (fluorogenic substrate I)
# Assay type: biochemical
# Conditions used: value outside parentheses (Ki in parenthesis)
Assay metric: IC50 (µM)

Compound structure: O=C(NO)C1(S(=O)(=O)c2ccc(OCCCOc3cccc(C(F)(F)F)c3)cc2)CCN(C2CC2)CC1
IC50 / µM: 2.43
//
Compound structure: O=C(CCCOc1ccc(S(=O)(=O)C2(C(=O)NO)CCOCC2)cc1)c1cccc2ccccc12
IC50 / µM: 6.24
//
Compound structure: O=C(CCCCOc1ccc(S(=O)(=O)C2(C(=O)NO)CCOCC2)cc1)c1ccccc1
IC50 / µM: 8.32
//
Compound structure: O=C(NO)C1(S(=O)(=O)c2ccc(OCCCSc3nc4ccc(Cl)cc4o3)cc2)CCOCC1
IC50 / µM: 6.81

(a) O=C(NO)C1(S(=O)(=O)c2ccc(OCCCCCn3cnc4ccccc43)cc2)CCOCC1
(b) CC(C)(C)c1ccc(C(=O)CCCOc2ccc(S(=O)(=O)C3(C(=O)NO)CCOCC3)cc2)cc1
(c) O=C(NO)C1(S(=O)(=O)c2ccc(OCCCO)cc2)CCOCC1
Which order do these items take when sorted by rising IC50? List them. Order the labels as requested and list them.
c, b, a
(c: 0.058 µM, b: 3.62 µM, a: 7.96 µM)

----------
# Subject of test: Human recombinant MMP-2 (Homo sapiens, UniProt P08253)
# Construct: made in house; host or cells: MMP-2-transfected p2AHT2 cells
# Sequence (P08253 110-660): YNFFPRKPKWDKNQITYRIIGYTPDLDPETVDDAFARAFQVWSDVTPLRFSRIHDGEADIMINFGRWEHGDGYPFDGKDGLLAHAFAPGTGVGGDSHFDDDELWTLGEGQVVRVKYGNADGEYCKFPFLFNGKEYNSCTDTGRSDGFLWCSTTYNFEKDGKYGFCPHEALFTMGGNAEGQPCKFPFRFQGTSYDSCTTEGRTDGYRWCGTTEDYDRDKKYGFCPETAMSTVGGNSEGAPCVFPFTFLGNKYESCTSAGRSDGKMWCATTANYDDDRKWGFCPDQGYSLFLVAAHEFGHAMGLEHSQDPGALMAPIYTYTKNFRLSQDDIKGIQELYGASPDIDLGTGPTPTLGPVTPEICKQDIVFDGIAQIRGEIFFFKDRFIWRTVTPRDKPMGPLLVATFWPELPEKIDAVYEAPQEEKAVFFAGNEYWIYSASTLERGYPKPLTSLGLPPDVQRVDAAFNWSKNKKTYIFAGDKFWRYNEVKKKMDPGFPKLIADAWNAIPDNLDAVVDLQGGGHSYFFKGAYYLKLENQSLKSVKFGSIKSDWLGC
# Protocol details: In vitro MMP inhibition, IC50 determination (fluorogenic substrate I)
# Type: biochemical
# Conditions used: value outside parentheses (Ki in parenthesis)
Assay metric: IC50 (µM)

Molecule: CN(CCc1ccccc1)S(=O)(=O)CCCOc1ccc(S(=O)(=O)C2(C(=O)NO)CCOCC2)cc1
Units label: µM
IC50: 0.0144
//
Molecule: COC(=O)c1ccc(C(=O)NCCCOc2ccc(S(=O)(=O)C3(C(=O)NO)CCOCC3)cc2)cc1
Units label: µM
IC50: 0.15

(I) COC(C)CCOc1ccc(S(=O)(=O)C2(C(=O)NO)CCOCC2)cc1 (centres unmarked)
(II) CN(C)c1ccc(C(=O)CCCOc2ccc(S(=O)(=O)C3(C(=O)NO)CCOCC3)cc2)cc1
Looking only at measured IC50, which entry is lower, I or II ? Lab note: record the label of whichever item you select.
I
(I: 0.003 µM, II: 0.0182 µM)

----------
# Subject of test: Human recombinant MMP-13 (Homo sapiens, UniProt P45452)
# Construct: made in house; host or cells: baculovirus / insect cells
# Protocol details: In vitro MMP inhibition, Ki determination (fluorogenic substrate II)
# Assay type: biochemical
# Conditions used: value in parentheses
# Method: Several hydroxamates and salts thereof were analyzed in in vitro assays to determine their ability to inhibit the MMP cleavage of peptide substrates. Inhibition (Ki) and IC50 constants were calculated from the assayed hydroxamate-MMP interactions. […] The assays from which the Ki determinations were made were performed as follows. […] In the absence of MMP inhibitory activity, substrate II was cleaved at the Gly-Leu bond resulting in an increase of relative fluorescence. […]
Assay metric: Ki (nM)

(a) CCc1ccc(COc2ccc(S(=O)(=O)C3(C(=O)NO)CCOCC3)cc2)cn1 [Example 552]
(b) CCCC(=O)CCCOc1ccc(S(=O)(=O)C2(C(=O)NO)CCOCC2)cc1 [Example 505]
Hi there! Just curious which has the higher Ki between a and b . Lab note: record the label of whichever item you select.
a

----------
# Subject of test: Human recombinant MMP-14 (Homo sapiens)
# Construct: The catalytic domain enzyme was expressed in E. coli inclusion bodies, solubilized in urea; made in house
# Protocol details: In vitro MMP inhibition, Ki determination (fluorogenic substrate II)
# Assay type: biochemical
# Conditions used: value in parentheses
Assay metric: Ki (µM)

Compound structure: O=C(NO)C1(S(=O)(=O)c2ccc(OCCCOCc3ccncc3)cc2)CCOCC1
Subject of test: Human recombinant MMP-14 (Homo sapiens)
Units label: µM
Recorded result: 0.689

(P) CCCC(=O)CCCOc1ccc(S(=O)(=O)C2(C(=O)NO)CCOCC2)cc1
(Q) COCCN1CCC(C(=O)NO)(S(=O)(=O)c2ccc(OCCc3cccc(-c4ccccn4)c3)cc2)CC1
(R) O=C(NO)C1(S(=O)(=O)c2ccc(OCCc3ccccn3)cc2)CCOCC1
(S) CCc1ccc(COc2ccc(S(=O)(=O)C3(C(=O)NO)CCOCC3)cc2)cn1
Which order do these items take when sorted by rising Ki? List them. Order the labels as requested and list them.
P, S, R, Q
(P: 0.962 µM, S: 2.44 µM, R: 3.5 µM, Q: 7.42 µM)

(A) CCCCc1ccc(CCCOc2ccc(S(=O)(=O)C3(C(=O)NO)CCOCC3)cc2)cn1
(B) COCCN1CCC(C(=O)NO)(S(=O)(=O)c2ccc(OCCc3cccc(-c4cccnc4)c3)cc2)CC1
Looking only at measured Ki, which entry is lower, A or B ? Lab note: record the label of whichever item you select.
B
(B: 1.18 µM, A: 6.68 µM)

(a) O=C(NO)C1(S(=O)(=O)c2ccc(OCCCc3cc(-c4ccc(F)cc4F)cs3)cc2)CCOCC1
(b) COCCN1CCC(C(=O)NO)(S(=O)(=O)c2ccc(OCCCc3cncc(-c4ccccc4)c3)cc2)CC1
Looking only at measured Ki, which entry is lower, a or b ? Lab note: record the label of whichever item you select.
b
(b: 2.79 µM, a: 4.15 µM)

(I) COCCN1CCC(C(=O)NO)(S(=O)(=O)c2ccc(OCCCc3cccc(-c4cccnc4)c3)cc2)CC1
(II) CCCCc1ccc(COc2ccc(S(=O)(=O)C3(C(=O)NO)CCOCC3)cc2)cn1
(III) CCN1CCC(C(=O)NO)(S(=O)(=O)c2ccc(OCCCSc3nc4ccccc4s3)cc2)CC1
// sort entries: Ki, high to low Order the labels as requested and list them.
III, I, II

(1) CCc1ccc(CCCOc2ccc(S(=O)(=O)C3(C(=O)NO)CCOCC3)cc2)cn1
(2) CCCc1ccc(CCCOc2ccc(S(=O)(=O)C3(C(=O)NO)CCOCC3)cc2)cn1
Hi there! Just curious which has the higher Ki between 1 and 2 . Lab note: record the label of whichever item you select.
2
(2: 6.81 µM, 1: 3.87 µM)

----------
# Subject of test: Human recombinant MMP-2 (Homo sapiens)
# Construct: made in house; host or cells: MMP-2-transfected p2AHT2 cells
# Protocol details: In vitro MMP inhibition, IC50 determination (fluorogenic substrate I)
# Format: biochemical
# Conditions used: value outside parenthesis
Assay metric: IC50 (nM)

Worked cases, answers included:
Compound: O=C(CCCOc1ccc(S(=O)(=O)C2(C(=O)NO)CCOCC2)cc1)Nc1ccc(OC(F)(F)F)cc1 [Example 250]
Subject of test: Human recombinant MMP-2 (Homo sapiens)
IC50, nM: 2.5
--
Compound: O=C(NO)C1(S(=O)(=O)c2ccc(OCCCc3ccc(-c4ccccc4)cc3)cc2)CCOCC1
Subject of test: Human recombinant MMP-2 (Homo sapiens)
IC50, nM: 522
--
Compound: CCOc1ccccc1-c1noc(CCCOc2ccc(S(=O)(=O)C3(C(=O)NO)CCOCC3)cc2)n1
Subject of test: Human recombinant MMP-2 (Homo sapiens)
IC50, nM: 163

(P) Cc1ccc(-c2nnc(CCCOc3ccc(S(=O)(=O)C4(C(=O)NO)CCOCC4)cc3)o2)cc1
(Q) CCCc1ccc(-c2nc(CCCOc3ccc(S(=O)(=O)C4(C(=O)NO)CCN(CCOC)CC4)cc3)oc2C)cc1
Hi there! Just curious which has the higher IC50 between P and Q . Lab note: record the label of whichever item you select.
P
(P: 201 nM, Q: 92.6 nM)

(P) CCOc1ccc(-c2noc(CCCOc3ccc(S(=O)(=O)C4(C(=O)NO)CCOCC4)cc3)n2)cc1
(Q) COCCN1CCC(C(=O)NO)(S(=O)(=O)c2ccc(OCCCN3C(=O)[C@@H](C)N(c4ccccc4)C3=O)cc2)CC1
Looking only at measured IC50, which entry is lower, P or Q ? Lab note: record the label of whichever item you select.
P
(P: 115 nM, Q: 434 nM)

(a) O=C(NO)C1(S(=O)(=O)c2ccc(OCCCc3nc(C4CCCCC4)no3)cc2)CCN(C2CC2)CC1
(b) COc1ccc(C(=O)C(O)CCOc2ccc(S(=O)(=O)C3(C(=O)NO)CCOCC3)cc2)cc1 (stereo not drawn)
Hi there! Just curious which has the higher IC50 between a and b . Lab note: record the label of whichever item you select.
b
(b: 30.4 nM, a: 20.4 nM)

(a) O=C(NO)C1(S(=O)(=O)c2ccc(OCCCc3nnc(-c4ccccc4Cl)o3)cc2)CCOCC1
(b) O=C(NO)C1(S(=O)(=O)c2ccc(OCCCc3cccc(-c4ccccc4)c3)cc2)CCOCC1
Hi there! Just curious which has the higher IC50 between a and b . Lab note: record the label of whichever item you select.
b
(b: 898 nM, a: 178 nM)
